Biological target: T1, recombinant human IGF-1R (rhIGF-1R) (human, UniProt P08069 31-935)
T1 construct: extracellular domain; Coated on plates in the TRF assay and europium-labelled (LANCE) in the TR-FRET assays; also called rhIGE-1R; Eu3+-rhIGF-1R
Assay: ratio of the IC50 at rhIGF-1R (TR-FRET) to the IC50 at sIR-Fc (FP); higher values indicate higher affinity for IR than IGF-1R
Would you mind telling me the reported Binding Ratio IGF-1R/IR of each entry?
Answer as a number with no unit attached.

Ask: What does the data say about its Binding Ratio IGF-1R/IR? Entry: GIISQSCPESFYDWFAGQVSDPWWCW [G33]
Reply: 1.3

Ask: Input GSLDESFYDWFERQLG (also called RP9 minus terminal lysines) [RP9]
Reply: 1.4

Ask: Input PPWGARFYDAIEQLVFDNL [RP4]
Reply: 476

Ask: Input DYKDFYDAIDQLVRGSARAGGTRD (also called 20E2 (D118)) [20E2]
Reply: 1.9

Ask: Input CWARPCGDAANFYDWFVQQAS (also called C1 (D112)) [C1]
Reply: 0.19

Ask: Input SQAGSAFYAWFDQVLRTV [RP15]
Reply: 25

Ask: Input VMDARDDPFYHKLSELVT [RP16]
Reply: 0.15

Where do these numbers come from? They come from patent US20030236190A1.
